# Tested on: Bel-7402
# Assay Name: Tumor cell proliferation (MTS), Bel-7402
# Type: cell-based
# Protocol Conditions: Homo sapiens, 72 hours, complete medium
Assay Metric: GI50 (µM)
Number in µM, nothing else.

For reference, reported GI50 for COc1cc2nccc(Oc3ccc4c(C(=O)NCc5ccc(C(=O)Nc6ccccc6N)cc5)cccc4c3)c2cc1OC stands at 30

Input COc1cc2nccc(Oc3ccc4c(C(=O)NCc5ccc(C(=O)Nc6ccccc6N)cn5)cccc4c3)c2cc1OC . Output GI50: 30

Recorded result, COc1cc2ncnc(Oc3ccc4c(C(=O)NCc5ccc(C(=O)Nc6ccccc6N)cc5)cccc4c3)c2cc1OC , GI50: 30

Documented GI50 of COc1cc2ncnc(Oc3ccc4c(C(=O)Nc5ccccc5N)cccc4c3)c2cc1OC : 30

For this compound ( COc1cc2ncnc(Oc3ccc4c(C(=O)NCc5ccc(C(=O)Nc6ccccc6N)cn5)cccc4c3)c2cc1OC ), measured GI50 is 30

Looking up COc1ccc2c(Oc3ccc4c(C(=O)NCc5ccc(C(=O)Nc6ccccc6N)cn5)cccc4c3)ccnc2c1 , I found its GI50 recorded as 17.7

Reported GI50 of COc1ccc2c(Oc3ccc4c(C(=O)Nc5ccccc5N)cccc4c3)ccnc2c1 : 30

Data point: COc1cc2ncnc(Oc3ccc4c(C(=O)Nc5ccc(F)cc5N)cccc4c3)c2cc1OC ; GI50 = 30

###

# System: Class I HDAC
# Assay Name: P21 reporter gene assay in HeLa cells
# Type: cell-based
# Protocol Conditions: 24 hours
# Protocol: HDAC subtype selectivity inhibition assay of tested compounds was carried out by several reporter gene assays experiments. Briefly, HeLa cells were seeded in 96-well plates the day before transfection to give a confluence of 50-80%. Cells were transfected with one of reporter gene plasmid containing a promoter sequence or response element upstream of a luciferase gene construct using FuGene6 transfection reagent according to the manufacturer's instruction (Roche). […]
Decide using Class I HDAC (P21 reporter assay) Fold Induction at 10 μM alone. Strictly below 3 Fold: YES. Equal to or above 3 Fold: NO.

Hello, I'm reviewing records and need to know if Class I HDAC (P21 reporter assay) Fold Induction at 10 μM of Nc1ccccc1NC(=O)c1cccc2cc(Oc3ccnc4c(C(F)(F)F)cccc34)ccc12 is below 3 Fold. Could you check? YES

Decide: Class I HDAC (P21 reporter assay) Fold Induction at 10 μM of Nc1cc(F)ccc1NC(=O)c1ccc(CNC(=O)/C=C/c2cccnc2)cc1 [CS055, Chidamide, reference compound] strictly below 3 Fold? NO

Does the reported Class I HDAC (P21 reporter assay) Fold Induction at 10 μM of the following compound sit strictly below 3 Fold? COc1cc2ncnc(Oc3ccc4c(C(=O)Nc5ccc(F)cc5N)cccc4c3)c2cc1OC YES

###

# System: total HDAC enzyme (HeLa extract)
# Assay Name: In vitro inhibition of total HDAC enzyme activity (HDAC Fluorimetric Assay/Drug Discovery Kit)
# Format: biochemical
Assay Metric: % inhibition of total HDAC enzyme activity at 30 μM (%)
Please respond with the number in % and leave the unit unwritten.

// below: answered compounds
Cpd Smiles	Number
COc1ccc2c(Oc3ccc4c(C(=O)NCc5ccc(C(=O)Nc6ccccc6N)cn5)cccc4c3)ccnc2c1	38.8
Nc1ccccc1NC(=O)c1cccc2cc(Oc3ccnc4cc(Cl)ccc34)ccc12	19.3
Nc1ccccc1NC(=O)c1ccc(CNC(=O)c2cccc3cc(Oc4ccnc5cc(Cl)ccc45)ccc23)cc1	38.7
Nc1ccccc1NC(=O)c1cccc2cc(Oc3ccnc4ccccc34)ccc12	15.9
COc1cc2nccc(Oc3ccc4c(C(=O)Nc5ccccc5N)cccc4c3)c2cc1OC	19.3

Pending compound:
Reported % inhibition of total HDAC enzyme activity at 30 μM of COc1cc2nccc(Oc3ccc4c(C(=O)NCc5ccc(C(=O)Nc6ccccc6N)cn5)cccc4c3)c2cc1OC : 39.3
